# assayedSystem: human APJ receptor (Homo sapiens, UniProt P35414)
# Construct: expressed in transfected cells; host or cells: HEK293
# testMethodNotes: Intracellular cAMP Accumulation Assay (APJ hcAMP, HTRF)
# Assay type: cell-based
# conditions: human APJ, intracellular cAMP accumulation; read-out: hAPJ cAMP EC50 Potency range
pEC50: −log10 of the molar value.
property: pEC50

Task item: What measured pEC50 goes with COc1cccc(OC)c1-n1c(COC(C)C)nc(=O)c(C(=O)N2CCC(c3ccc(F)cc3)C2)c1O (single isomer, unassigned) [Example 102] ?
Reply: 8.00 to 11.00

Task item: What measured pEC50 goes with COc1cccc(OC)c1-n1c(COC2CC2)nc(=O)c(C(=O)N2CCC(c3cccc(F)c3)C2)c1O (stereo not drawn) ?
Reply: 8.00 to 11.00

Task item: What measured pEC50 goes with CCCCc1nc(=O)c(C(=O)N2CC[C@H](c3ccccc3)C2)c(O)n1C(C)c1ccncc1 (stereo partly drawn) ?
Reply: 7.00 to 8.00

Task item: What measured pEC50 goes with CC[C@@H](c1cc(F)cc(F)c1)n1c(-c2ccn(CC)n2)nc(=O)c(C(=O)N2CCC(c3ncccc3F)C2)c1O (single isomer, unassigned) [Example 212] ?
Reply: 8.00 to 11.00

Task item: What measured pEC50 goes with CCc1cccc(CC)c1-n1c(COC(C)C)nc(=O)c(C(=O)N2CCC(c3ccccc3F)C2)c1O (single isomer, unassigned) ?
Reply: 8.00 to 11.00

Task item: What measured pEC50 goes with `COc1cccc(OC)c1-n1c(CC2CC2)nc(=O)c(C(=O)N2CC[C@H](c3ccccc3)C2)c1O` ?
Reply: 8.00 to 11.00

* * *

Exercise: for every item that follows, state its recorded EC50.
# assayedSystem: human APJ receptor (Homo sapiens)
# Construct: expressed in transfected cells; host or cells: HEK293
# testMethodNotes: Intracellular cAMP Accumulation Assay (APJ hcAMP, HTRF)
# Type: cell-based
# conditions: read-out: hAPJ cAMP EC50 Potency range

Task item: What measured EC50 goes with CCCCc1nc(=O)c(C(=O)N2CCC(c3ccc(F)cn3)C2)c(O)n1-c1c(OC)cccc1OC (single isomer, unassigned) [Example 371] ?
Reply: 0.01 to 10 nM

Task item: What measured EC50 goes with CCCCc1nc(=O)c(C(=O)N2CCC(c3ccc(F)cn3)C2)c(O)n1-c1c(OC)cccc1OC (single isomer, unassigned) [Example 370] ?
Reply: 0.01 to 10 nM

Task item: What measured EC50 goes with CCCCc1nc(=O)c(C(=O)N2CCC(c3ncccc3F)C2)c(O)n1-c1c(OC)cccc1OC (single isomer, unassigned) [Example 367] ?
Reply: 0.01 to 10 nM

* * *

# assayedSystem: human APJ receptor (Homo sapiens, UniProt P35414)
# Construct: expressed in transfected cells; host or cells: HEK293
# Sequence (P35414 1-380): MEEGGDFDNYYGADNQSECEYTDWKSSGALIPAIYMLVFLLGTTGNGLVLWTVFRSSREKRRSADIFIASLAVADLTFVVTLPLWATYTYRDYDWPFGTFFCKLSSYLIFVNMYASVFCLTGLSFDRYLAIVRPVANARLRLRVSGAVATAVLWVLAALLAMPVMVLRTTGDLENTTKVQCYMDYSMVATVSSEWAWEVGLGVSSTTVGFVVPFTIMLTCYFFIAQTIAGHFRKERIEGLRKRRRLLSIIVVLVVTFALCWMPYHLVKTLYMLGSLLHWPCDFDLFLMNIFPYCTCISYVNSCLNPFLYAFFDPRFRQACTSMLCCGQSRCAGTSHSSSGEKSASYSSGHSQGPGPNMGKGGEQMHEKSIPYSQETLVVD
# testMethodNotes: Intracellular cAMP Accumulation Assay (APJ hcAMP, HTRF)
# Assay type: cell-based
# conditions: human APJ, intracellular cAMP accumulation; read-out: hAPJ cAMP EC50 Potency range
pEC50: −log10 of the molar value.
Exercise: for every item that follows, state its recorded pEC50.

Task item: What measured pEC50 goes with COc1cccc(OC)c1-n1c(CCC2CC2)nc(=O)c(C(=O)N2CCC(c3ccc(F)cn3)C2)c1O (single isomer, unassigned) [Example 175] ?
Reply: 8.00 to 11.00

Task item: What measured pEC50 goes with CCCCc1nc(=O)c(C(=O)N2CC[C@@H](c3ccccc3)C2)c(O)n1[C@H](CC)c1ccccc1 [Example 128] ?
Reply: 7.00 to 8.00

Task item: What measured pEC50 goes with COc1cccc(OC)c1-n1c(COC(C)(C)C)nc(=O)c(C(=O)N2CCC(c3ccccc3Cl)C2)c1O (single isomer, unassigned) [Example 42] ?
Reply: 8.00 to 11.00

Task item: What measured pEC50 goes with CC[C@@H](c1cc(F)cc(F)c1)n1c(-c2ccn(CC)n2)nc(=O)c(C(=O)N2CCC(c3ncccc3F)C2)c1O (single isomer, unassigned) [Example 181] ?
Reply: 8.00 to 11.00

Task item: What measured pEC50 goes with CCCCc1nc(=O)c(C(=O)N2CC[C@@H](c3ccccc3)C2)c(O)n1-c1c(OC)ncnc1OC [Example 112] ?
Reply: 8.00 to 11.00

Task item: What measured pEC50 goes with COc1cccc(OC)c1-n1c(COC(C)C)nc(=O)c(C(=O)N2CCC(c3cccc(F)c3)C2)c1O (single isomer, unassigned) [Example 95] ?
Reply: 8.00 to 11.00

Task item: What measured pEC50 goes with COc1ccccc1C1CCN(C(=O)c2c(O)n(-c3c(OC)cccc3OC)c(COC(C)C)nc2=O)C1 (single isomer, unassigned) [Example 161] ?
Reply: 8.00 to 11.00

Task item: What measured pEC50 goes with CCCCc1nc(=O)c(C(=O)N2CC[C@H](c3ccccc3)C2)c(O)n1-c1c(OC)ncnc1OC [Example 113] ?
Reply: 8.00 to 11.00

Task item: What measured pEC50 goes with CCCCc1nc(=O)c(C(=O)N2CC[C@@H](c3ccccc3)C2)c(O)n1[C@H](C)c1ccccc1 [Example 132] ?
Reply: 7.00 to 8.00

Task item: What measured pEC50 goes with COc1cccc(OC)c1-n1c(CCC2CC2)nc(=O)c(C(=O)N2CCC(c3ncccc3F)C2)c1O (single isomer, unassigned) [Example 178] ?
Reply: 8.00 to 11.00

Task item: What measured pEC50 goes with COc1cccc(OC)c1-n1c(CCC2CC2)nc(=O)c(C(=O)N2CC[C@H](c3ccccc3)C2)c1O [Example 96] ?
Reply: 8.00 to 11.00

Task item: What measured pEC50 goes with CC[C@@H](c1cc(F)cc(F)c1)n1c(-c2nc(C)cs2)nc(=O)c(C(=O)N2CCC(c3ncc(F)cc3F)C2)c1O (single isomer, unassigned) [Example 210] ?
Reply: 8.00 to 11.00

Task item: What measured pEC50 goes with COc1cccc(OC)c1-n1c(COC(C)C)nc(=O)c(C(=O)N2CCC(c3ccc(F)cc3F)C2)c1O (single isomer, unassigned) [Example 162] ?
Reply: 8.00 to 11.00

* * *

# assayedSystem: human APJ receptor (Homo sapiens, UniProt P35414)
# Construct: expressed in transfected cells; host or cells: HEK293
# Sequence (P35414 1-380): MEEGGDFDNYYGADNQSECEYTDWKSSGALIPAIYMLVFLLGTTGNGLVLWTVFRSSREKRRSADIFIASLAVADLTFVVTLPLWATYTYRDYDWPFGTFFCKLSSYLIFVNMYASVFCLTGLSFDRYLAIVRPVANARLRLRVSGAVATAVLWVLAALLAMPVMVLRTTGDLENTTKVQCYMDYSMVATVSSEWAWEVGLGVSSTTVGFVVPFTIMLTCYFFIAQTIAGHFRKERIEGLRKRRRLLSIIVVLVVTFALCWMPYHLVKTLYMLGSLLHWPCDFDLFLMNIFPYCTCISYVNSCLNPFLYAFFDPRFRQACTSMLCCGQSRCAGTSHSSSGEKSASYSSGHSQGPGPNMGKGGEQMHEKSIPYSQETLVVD
# testMethodNotes: Intracellular cAMP Accumulation Assay (APJ hcAMP, HTRF)
# Type: cell-based
# conditions: human APJ, intracellular cAMP accumulation; read-out: hAPJ cAMP EC50 Potency range
pEC50: −log10 of the molar value.
property: pEC50

Task item: What measured pEC50 goes with COc1cccc(OC)c1-n1c(CCC2CC2)nc(=O)c(C(=O)N2CCC(c3ncc(F)cc3F)C2)c1O (single isomer, unassigned) [Example 168] ?
Reply: 8.00 to 11.00

Task item: What measured pEC50 goes with CCCCc1nc(=O)c(C(=O)N2CCC(c3ccc(F)cc3)C2)c(O)n1-c1c(OC)cccc1OC (stereo not shown) [Example 87] ?
Reply: 8.00 to 11.00

Task item: What measured pEC50 goes with CCCCc1nc(O)c(C(=O)N2CCC(c3ccc(F)cc3)C2)c(=O)n1-c1c(CC)cccc1CC (racemic) ?
Reply: 8.00 to 11.00

Task item: What measured pEC50 goes with COc1cccc(OC)c1-n1c(COC(C)(C)C)nc(=O)c(C(=O)N2CCC(c3ccc(F)cc3)C2)c1O (stereo not shown) ?
Reply: 8.00 to 11.00

Task item: What measured pEC50 goes with `CCCCc1nc(=O)c(C(=O)N2CC[C@H](c3ccccc3)C2)c(O)n1[C@@H](C)c1ccc(F)cc1` ?
Reply: 6.52 to 7.00

Task item: What measured pEC50 goes with `CCCCc1nc(=O)c(C(=O)N2CC[C@H](NC(=O)OCc3ccccc3)C2)c(O)n1-c1c(OC)cccc1OC` ?
Reply: 7.00 to 8.00

Task item: What measured pEC50 goes with CC[C@@H](c1cc(F)cc(F)c1)n1c(-c2nc(C)cs2)nc(=O)c(C(=O)N2CCC(c3cc(F)ccn3)C2)c1O (single isomer, unassigned) ?
Reply: 8.00 to 11.00

Task item: What measured pEC50 goes with `CCCCc1nc(=O)c(C(=O)N2CC[C@@H](c3ccccc3)C2)c(O)n1[C@@H](C)c1cccc(C#N)c1` ?
Reply: 7.00 to 8.00

Task item: What measured pEC50 goes with COc1cccc(OC)c1-n1c(COC(C)C)nc(=O)c(C(=O)N2CCC(c3c(F)cccc3F)C2)c1O (single isomer, unassigned) [Example 164] ?
Reply: 8.00 to 11.00

Task item: What measured pEC50 goes with CCCCc1nc(=O)c(C(=O)N2CCC(c3cccc(F)c3)C2)c(O)n1[C@@H](CC)c1ccccc1 (single isomer, unassigned) [Example 119] ?
Reply: 8.00 to 11.00

Task item: What measured pEC50 goes with CC[C@@H](c1cc(F)cc(F)c1)n1c(-c2cnn(C)c2)nc(=O)c(C(=O)N2CCC(c3ncc(F)cc3F)C2)c1O (single isomer, unassigned) [Example 217] ?
Reply: 8.00 to 11.00

Task item: What measured pEC50 goes with `CCCCc1nc(=O)c(C(=O)N2CC[C@H](c3ccccc3)C2)c(O)n1[C@H](C)c1ccccc1OC` ?
Reply: 8.00 to 11.00

Task item: What measured pEC50 goes with CC[C@@H](c1cc(F)cc(F)c1)n1c(-c2cnn(C)c2)nc(=O)c(C(=O)N2CCC(c3ccc(F)cn3)C2)c1O (single isomer, unassigned) [Example 191] ?
Reply: 8.00 to 11.00
